Could you please report measured self-aminoacylation for the items listed next?
test system: biotinyl-Trp-oxazolone; assay: self-aminoacylation, catalytic enhancement (BWO) (fold over background); higher = more active; k-Seq, kA / k0A0; sequences stand for … in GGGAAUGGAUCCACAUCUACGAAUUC…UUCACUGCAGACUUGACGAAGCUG
This sample holds only a part of the variants without activity.

ENTRY_SEQUENCE	self-aminoacylation
CCACACUUCAAACAAUCGGUA [Fam1B.1 aminoacylation ribozyme variant]	1.47
CUCCUUCAAACAAUCGGGCUG [Fam1A.1 aminoacylation ribozyme variant]	14.4
AUUACCCUGGUCAACGAGUUA [Fam2.1 aminoacylation ribozyme variant]	0.529
AUUGCCCUGGGCAUCGAGUGA [Fam2.1 aminoacylation ribozyme variant]	7.29
CCACACUUAAAGCAAUCCGUC [Fam1B.1 aminoacylation ribozyme variant]	0.523

Each sequence below has a recorded value; state its self-aminoacylation.
1. AUUACCUUGGUCUUCGAGUGA [Fam2.1 aminoacylation ribozyme variant]
2. CCACACUACAAGCAAUCUGUC [Fam1B.1 aminoacylation ribozyme variant]
3. AUUACUCUAGUCAUCGAGUGA [Fam2.1 aminoacylation ribozyme variant]

[7.78, 0.353, 6.32]

###

system: biotinyl-Phe-oxazolone; experiment: self-aminoacylation, catalytic enhancement (BFO) (fold over background); higher = more active; k-Seq, kA / k0A0; sequences stand for … in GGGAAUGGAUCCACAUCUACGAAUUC…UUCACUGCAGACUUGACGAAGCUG
This sample holds only a part of the variants without activity.
OBSERVATION_TYPE: self-aminoacylation
One number for each entry.

ENTRY_SEQUENCE	OBSERVATION_TYPE	VALUE
CUACUUCAAACUAUGGGUCUG [Fam1A.1 aminoacylation ribozyme variant]	self-aminoacylation	0.588
ACACACCUCAAGCAAUCGGUC [Fam1B.1 aminoacylation ribozyme variant]	self-aminoacylation	1.19
CUACACUUCAGGCAAUCGGUC [Fam1B.1 aminoacylation ribozyme variant]	self-aminoacylation	1.49

Required: self-aminoacylation, one value per sequence below.
1. AAUCACCUAGGUCAUCGGGGG [Fam2.2 aminoacylation ribozyme variant]
2. GUUCACCUAGGUCAUGGGGUG [Fam2.2 aminoacylation ribozyme variant]

10.6
10.3

Go through the items and report each one's self-aminoacylation.
1. AUUCACCUCGGUCAUCGGCUG [Fam2.2 aminoacylation ribozyme variant]
2. CCUCACUUCAAACAAUCGGUC [Fam1B.1 aminoacylation ribozyme variant]
3. CCACACUUCAGGCAAUCGGGC [Fam1B.1 aminoacylation ribozyme variant]

[8.33, 93.7, 11]

###

tested on: biotinyl-Val-oxazolone; test: self-aminoacylation, catalytic enhancement (BVO) (fold over background); higher = more active; k-Seq, kA / k0A0; sequences stand for … in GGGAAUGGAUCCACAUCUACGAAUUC…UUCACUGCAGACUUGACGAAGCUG
This sample holds only a part of the variants without activity.
OBSERVATION_TYPE: self-aminoacylation
Answers are plain numbers.

Example entries begin here.
ENTRY_SEQUENCE	self-aminoacylation
AUUACCGUGGUCAUCGAGUGA [Fam2.1 aminoacylation ribozyme variant]	3.68
AAUACCCUGGUCAUAGAGUGA [Fam2.1 aminoacylation ribozyme variant]	2.3
AUUACCCGGGUCAUGGAGUGA [Fam2.1 aminoacylation ribozyme variant]	2.87
AACUUUUCUAAUAGUCGCAAG [Fam3.1 aminoacylation ribozyme variant]	1.71
AAGUUUGGCAAUAGUCGCAAG [Fam3.1 aminoacylation ribozyme variant]	1.42

Hello, I would appreciate it if you could give self-aminoacylation for each entry below.
1. CCACACUUCAAGCAAUCCGUG [Fam1B.1 aminoacylation ribozyme variant]
2. AUUACCCUUGUCAUCGAGUCA [Fam2.1 aminoacylation ribozyme variant]
3. AUCCACCUAGCUCAUCGGGUG [Fam2.2 aminoacylation ribozyme variant]
4. ACACACUUCAAGCAAACGGUC [Fam1B.1 aminoacylation ribozyme variant]

2.47
0.841
2.89
1.04
